B1: AUP1 (parent)
chain: EGLLRFSSWPFSIQDVVQPLTLQV

- Variants of: B1
- method: protein stability index of a GFP-peptide fusion (GPS, HEK-293T) (PSI 1-6); higher = more stable;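 further: lentivirally expressed fusions sorted by FACS into six bins by GFP to DsRed ratio, PSI derived from sequencing read proportions per bin multiplied by bin number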
- recordedConditions: c terminus: a fixed tail appended
Tick Condition met if protein stability index is 3 or greater. Tick Condition not met if protein stability index is less than 3.

Given the entry "F6L" , answer whether its protein stability index meets or surpasses 3.
Condition not met

Given the entry "T21D" , answer whether its protein stability index meets or surpasses 3.
Condition not met

Given the entry "L4I" , answer whether its protein stability index meets or surpasses 3.
Condition met

Given the entry "S12G" , answer whether its protein stability index meets or surpasses 3.
Condition not met

Given the entry "E1I" , answer whether its protein stability index meets or surpasses 3.
Condition not met

Given the entry "F11G" , answer whether its protein stability index meets or surpasses 3.
Condition not met

Given the entry "L22Q" , answer whether its protein stability index meets or surpasses 3.
Condition not met

Given the entry "T21Q" , answer whether its protein stability index meets or surpasses 3.
Condition not met

Given the entry "E1C" , answer whether its protein stability index meets or surpasses 3.
Condition met

Given the entry "W9N" , answer whether its protein stability index meets or surpasses 3.
Condition not met

Given the entry "Q18E" , answer whether its protein stability index meets or surpasses 3.
Condition not met

Given the entry "S12D" , answer whether its protein stability index meets or surpasses 3.
Condition not met

Given the entry "V16E" , answer whether its protein stability index meets or surpasses 3.
Condition not met

Given the entry "T21P" , answer whether its protein stability index meets or surpasses 3.
Condition not met

Given the entry "V24R" , answer whether its protein stability index meets or surpasses 3.
Condition not met

Given the entry "L3D" , answer whether its protein stability index meets or surpasses 3.
Condition not met

Given the entry "L3T" , answer whether its protein stability index meets or surpasses 3.
Condition met

Given the entry "S7W" , answer whether its protein stability index meets or surpasses 3.
Condition not met

Given the entry "W9R" , answer whether its protein stability index meets or surpasses 3.
Condition not met

Given the entry "L22N" , answer whether its protein stability index meets or surpasses 3.
Condition not met

Given the entry "L20I" , answer whether its protein stability index meets or surpasses 3.
Condition met

Given the entry "Q23H" , answer whether its protein stability index meets or surpasses 3.
Condition not met

Given the entry "F6D" , answer whether its protein stability index meets or surpasses 3.
Condition not met

Given the entry "S7R" , answer whether its protein stability index meets or surpasses 3.
Condition not met

Given the entry "E1T" , answer whether its protein stability index meets or surpasses 3.
Condition not met

Given the entry "T21C" , answer whether its protein stability index meets or surpasses 3.
Condition not met

Given the entry "F11R" , answer whether its protein stability index meets or surpasses 3.
Condition not met

Given the entry "L3A" , answer whether its protein stability index meets or surpasses 3.
Condition not met

Given the entry "V24W" , answer whether its protein stability index meets or surpasses 3.
Condition not met

Given the entry "F11S" , answer whether its protein stability index meets or surpasses 3.
Condition met

Given the entry "V24S" , answer whether its protein stability index meets or surpasses 3.
Condition not met

Given the entry "L20N" , answer whether its protein stability index meets or surpasses 3.
Condition not met

Given the entry "E1N" , answer whether its protein stability index meets or surpasses 3.
Condition not met

Given the entry "F6Q" , answer whether its protein stability index meets or surpasses 3.
Condition not met

Given the entry "I13C" , answer whether its protein stability index meets or surpasses 3.
Condition not met

Given the entry "L3K" , answer whether its protein stability index meets or surpasses 3.
Condition not met

Given the entry "L20S" , answer whether its protein stability index meets or surpasses 3.
Condition not met

Given the entry "T21G" , answer whether its protein stability index meets or surpasses 3.
Condition met

Given the entry "L4D" , answer whether its protein stability index meets or surpasses 3.
Condition not met

Given the entry "V16K" , answer whether its protein stability index meets or surpasses 3.
Condition not met

Given the entry "S8E" , answer whether its protein stability index meets or surpasses 3.
Condition not met

Given the entry "R5W" , answer whether its protein stability index meets or surpasses 3.
Condition met

Given the entry "E1M" , answer whether its protein stability index meets or surpasses 3.
Condition not met

Given the entry "Q18Y" , answer whether its protein stability index meets or surpasses 3.
Condition met
